- Test target: CETP (Homo sapiens, UniProt P11597)
- Sequence (P11597 18-493): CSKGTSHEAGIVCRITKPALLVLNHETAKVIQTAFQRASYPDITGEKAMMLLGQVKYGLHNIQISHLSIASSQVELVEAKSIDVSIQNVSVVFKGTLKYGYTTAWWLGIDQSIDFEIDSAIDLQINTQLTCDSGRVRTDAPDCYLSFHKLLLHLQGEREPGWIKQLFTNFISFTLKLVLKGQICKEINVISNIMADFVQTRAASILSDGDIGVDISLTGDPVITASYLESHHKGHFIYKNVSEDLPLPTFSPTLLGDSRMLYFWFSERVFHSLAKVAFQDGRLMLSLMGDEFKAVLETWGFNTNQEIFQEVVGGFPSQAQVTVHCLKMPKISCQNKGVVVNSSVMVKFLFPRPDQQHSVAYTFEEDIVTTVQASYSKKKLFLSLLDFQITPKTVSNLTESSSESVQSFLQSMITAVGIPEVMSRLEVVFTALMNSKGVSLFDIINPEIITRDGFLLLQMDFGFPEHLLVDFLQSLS
- Assay info: In vitro CETP activity inhibitory effect in whole plasma
- Condition: plasma from healthy subjects containing [3H]CE-HDL3, incubated 4 hours at 37° C.; read-out: CETP activity inhibition in whole plasma IC50
Quantity kind: pIC50
FYI, pIC50 means -log10 of a concentration in mol per litre.

The following compounds have reported results that may help.
CC(C)(C)C(=O)Nc1ccccc1S [Example 9]: 4.00
CC1(C(=O)Nc2ccccc2SC(=O)c2ccccc2)CCCCC1 [Example 32]: 4.49
CC(C)CCC1(C(=O)Nc2ccccc2SC(=O)Cc2ccccc2)CCCC1 [Example 25-61]: 5.30
CC(C)CCC1(C(=O)Nc2ccccc2SC(=O)C(C)(C)O)CCCCC1 [Example 46]: 5.30

// next entry
Identify measured pIC50 obtained with CETP (Homo sapiens, UniProt P11597) for CC(C)CCC1(C(=O)Nc2cc(Cl)c(Cl)cc2SC(=O)Cc2ccccc2)CCCCC1 [Example 25-83] .
4.74

###

- Test target: CETP (Homo sapiens, UniProt P11597)
- Assay info: In vitro CETP activity inhibitory effect in whole plasma
- Condition: plasma from healthy subjects containing [3H]CE-HDL3, incubated 4 hours at 37° C.; read-out: CETP activity inhibition in whole plasma IC50
Reported IC50 is given for each of the following compounds.
Give just the numeric value; µM need not be written.

The following compounds have reported results that may help.
O=C(Nc1ccccc1SSc1ccccc1NC(=O)c1ccccc1)c1ccccc1 [Example 3]: 101
CC1(C(=O)Nc2cc(C(F)(F)F)ccc2SC(=O)Sc2ccc(C(F)(F)F)cc2NC(=O)C2(C)CCCCC2)CCCCC1 [Example 25-96]: 8
CC(C)CCC1(C(=O)Nc2ccccc2SC(=O)c2cccnc2)CCCC1 [Example 25-60]: 5
CC(C)CC(CC(C)C)C(=O)Nc1cc(Cl)c(Cl)cc1SC(=O)C(C)(C)C [Example 66-14]: 11
CC(C)CCC1(C(=O)Nc2ccccc2SC(=O)CCCCC(=O)O)CCCCC1 [Example 53]: 8
CC(C)(C)C(=O)Sc1cc(Cl)c(Cl)cc1NC(=O)C1(CC2CCCCC2)CCCC1 [Example 66-51]: 45
CC1(C(=O)Nc2cc(F)ccc2S)CCCCC1 [Example 19-1]: 19
CC(C)CC1(C(=O)Nc2ccccc2SC(=O)C(C)C)CCCCC1 [Example 27]: 7
CCC(CC)CC1(C(=O)Nc2ccccc2SC(=O)C(C)(C)C)CCCCC1 [Example 60]: 41
CC(C)(C)C(=O)Nc1ccccc1SC(=O)C1CCCCC1 [Example 25-4]: 32

// next entry
Please supply the value of reported IC50 for the item O=C(Nc1ccccc1SSc1ccccc1NC(=O)c1cccs1)c1cccs1 [Example 4]
175
